target: mTORC1 (Homo sapiens (Human), UniProt P42345+P62942); assay: mTORC1 inhibition, AlphaLISA of Phospho-p70 S6 kinase (p70S6K pT389) in PC-3 cells; conditions: inhibition of p70S6K pT389 levels
pIC50: −log10 of the molar value.
observation-type: pIC50

>>> measured_result("CO[C@@H]1C[C@H](C[C@@H](C)[C@@H]2CC(=O)[C@H](C)/C=C(\\C)[C@H](O)[C@@H](OC)C(=O)[C@H](C)C[C@H](C)/C=C/C=C/C=C(\\C)[C@@H](OCCC3COC3)C[C@@H]3CC[C@@H](C)[C@@](O)(O3)C(=O)C(=O)N3CCCC[C@H]3C(=O)O2)CC[C@H]1O")
"9.10 to 10.00"
>>> measured_result("COC1C(=O)C(C)CC/C=C/C=C/C=C(\\C)C(NS(=O)(=O)CCCS(=O)(=O)O)C[C@H]2CC[C@H](C)[C@](O)(O2)C(=O)C(=O)N(C)C(C)C(=O)OC([C@H](C)C[C@@H]2CC[C@@H](OC3CC3)[C@H](OC)C2)CC(=O)C(C)/C=C(\\C)C1O (stereo partly drawn)")
"9.10 to 10.00"
>>> measured_result("COC1CC(CC(C)C2CC(=O)C(C)C=C(C)C(O)C(OC)C(=O)C(C)CC(C)C=CC=CC=C(C)C(OCC3CC3)CC3CCC(C)C(O)(O3)C(=O)C(=O)N3CCCCC3C(=O)O2)CCC1OCCCO (stereo not drawn) [Compound 42]")
"< 9.10"
>>> measured_result("COC1CC(CC(C)C2CC(=O)C(C)C=C(C)C(O)C(OC)C(=O)C(C)CC(C)C=CC=CC=C(C)C(OCC3CCCC3)CC3CCC(C)C(O)(O3)C(=O)C(=O)N3CCCCC3C(=O)O2)CCC1O (stereo not drawn)")
"9.10 to 10.00"
>>> measured_result("COC1CC(CC(C)C2CC(=O)C(C)C=C(C)C(O)C(OC)C(=O)C(C)CC(C)C=CC=CC=C(C)C(OCC3CCC3)CC3CCC(C)C(O)(O3)C(=O)C(=O)N3CCCCC3C(=O)O2)CCC1O (stereo not drawn) [Compound 37]")
"< 9.10"
>>> measured_result("COC1CC(CC(C)C2CC(=O)C(C)C=C(C)C(O)C(OC)C(=O)C(C)CC(C)C=CC=CC=C(C)C(OCC3CC3)CC3CCC(C)C(O)(O3)C(=O)C(=O)N3CCCCC3C(=O)O2)CCC1OCCCO (stereo not drawn) [Compound 43]")
"< 9.10"
>>> measured_result("COC1CC(CC(C)C2CC(=O)C(C)C=C(C)C(O)C(OC)C(=O)C(C)CC(C)C=CC=CC=C(C)C(OCC3CCC3)CC3CCC(C)C(O)(O3)C(=O)C(=O)N3CCCCC3C(=O)O2)CCC1OCCO (stereo not drawn)")
"< 9.10"
>>> measured_result("COC1C(=O)C(C)CC/C=C/C=C/C=C(\\C)[C@H](NS(=O)(=O)CCO)C[C@H]2CC[C@H](C)[C@](O)(O2)C(=O)C(=O)N(C)C(C)C(=O)OC([C@H](C)C[C@@H]2CC[C@@H](OC3CC3)[C@H](OC)C2)CC(=O)C(C)/C=C(\\C)C1O (stereo partly drawn)")
"9.10 to 10.00"
>>> measured_result("COC1CC(CC(C)C2CC(=O)C(C)C=C(C)C(O)C(OC)C(=O)C(C)CC(C)C=CC=CC=C(C)C(NS(=O)(=O)C3CC3)CC3CCC(C)C(O)(O3)C(=O)C(=O)N3CCCCC3C(=O)O2)CCC1OCCCO (mixture of isomers)")
"9.10 to 10.00"

* * *

target: FKBP12 / FRB ternary complex (Homo sapiens (Human), UniProt P42345+P62942); assay: SPR assay to characterize ternary complex formation with FKBP12 (FRB binding to rapalog-saturated FKBP12); settings: FRB dilutions with 100 nM rapalog on immobilized FKBP12
observation-type: Kd

>>> measured_result("COCCOC1CC2CCC(C)C(O)(O2)C(=O)C(=O)N2CCCCC2C(=O)OC(C(C)CC2CCC(OCC(=O)O)C(OC)C2)CC(=O)C(C)C=C(C)C(O)C(OC)C(=O)C(C)CC(C)C=CC=CC=C1C (stereo not drawn)")
"300 to 800 nM"
>>> measured_result("COC1CC(CC(C)C2CC(=O)C(C)C=C(C)C(O)C(OC)C(=O)C(C)CC(C)C=CC=CC=C(C)C(OCC3CCC3)CC3CCC(C)C(O)(O3)C(=O)C(=O)N3CCCCC3C(=O)O2)CCC1O (stereo not drawn) [Compound 37]")
"300 to 800 nM"
>>> measured_result("COC1CC(CC(C)C2CC(=O)C(C)C=C(C)C(O)C(OC)C(=O)C(C)CC(C)C=CC=CC=C(C)C(OCC3CCC3)CC3CCC(C)C(O)(O3)C(=O)C(=O)N3CCCCC3C(=O)O2)CCC1O (stereo not drawn) [Compound 36]")
"300 to 800 nM"
>>> measured_result("COC1C(=O)C(C)CC/C=C/C=C/C=C(\\C)C(CCO)C[C@H]2CC[C@H](C)[C@](O)(O2)C(=O)C(=O)N(C)C(C)C(=O)OC([C@H](C)C[C@@H]2CC[C@@H](OCCCS(C)(=O)=O)[C@H](OC)C2)CC(=O)C(C)/C=C(\\C)C1O (stereo partly drawn)")
"300 to 800 nM"
>>> measured_result("CO[C@@H]1C[C@H](C[C@@H](C)[C@@H]2CC(=O)[C@H](C)/C=C(\\C)[C@@H](O)[C@@H](OC)C(=O)[C@H](C)C[C@H](C)/C=C/C=C/C=C(\\C)[C@@H](OC3CC3)C[C@@H]3CC[C@@H](C)[C@@](O)(O3)C(=O)C(=O)N3CCCC[C@H]3C(=O)O2)CC[C@H]1OCCCS(C)(=O)=O")
"< 300 nM"
>>> measured_result("CO[C@@H]1C[C@H](C[C@@H](C)[C@@H]2CC(=O)[C@H](C)/C=C(\\C)[C@@H](O)[C@@H](OC)C(=O)[C@H](C)C[C@H](C)/C=C/C=C/C=C(\\C)[C@H](OCC3CCC3)C[C@@H]3CC[C@@H](C)[C@@](O)(O3)C(=O)C(=O)N3CCCC[C@H]3C(=O)O2)CC[C@H]1OCCCS(C)(=O)=O")
"300 to 800 nM"

* * *

biological target: FKBP51 (Homo sapiens (Human), UniProt Q13451)
Sequence (Q13451 whole entry): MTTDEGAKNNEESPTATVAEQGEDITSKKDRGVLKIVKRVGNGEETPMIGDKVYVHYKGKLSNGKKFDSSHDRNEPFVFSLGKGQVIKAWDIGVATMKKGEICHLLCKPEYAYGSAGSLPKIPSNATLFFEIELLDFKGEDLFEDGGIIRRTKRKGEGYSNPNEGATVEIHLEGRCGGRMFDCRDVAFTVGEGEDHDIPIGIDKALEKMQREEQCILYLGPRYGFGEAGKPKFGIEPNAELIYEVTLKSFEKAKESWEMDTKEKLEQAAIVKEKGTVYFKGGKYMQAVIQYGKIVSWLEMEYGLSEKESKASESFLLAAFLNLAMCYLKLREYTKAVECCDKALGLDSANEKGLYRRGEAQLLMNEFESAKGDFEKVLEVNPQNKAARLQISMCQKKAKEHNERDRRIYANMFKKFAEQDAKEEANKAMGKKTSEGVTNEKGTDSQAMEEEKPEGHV
Measured Kd, listed per entry.
observation-type: Kd

>>> measured_result("COC1CC(CC(C)C2CC(=O)C(C)C=C(C)C(O)C(OC)C(=O)C(C)CC(C)C=CC=CC=C(C)C(OCC3CC3)CC3CCC(C)C(O)(O3)C(=O)C(=O)N3CCCCC3C(=O)O2)CCC1OCCCO (centres unmarked) [Compound 43]")
"> 100 nM"
>>> measured_result("COC1CC(CC(C)C2CC(=O)C(C)C=C(C)C(O)C(OC)C(=O)C(C)CC(C)C=CC=CC=C(C)C(OC3CC3)CC3CCC(C)C(O)(O3)C(=O)C(=O)N3CCCCC3C(=O)O2)CCC1OCCCO (centres unmarked) [Compound 52]")
"> 100 nM"
>>> measured_result("CO[C@@H]1C[C@H](C[C@@H](C)[C@@H]2CC(=O)[C@H](C)/C=C(\\C)[C@@H](O)[C@@H](OC)C(=O)[C@H](C)C[C@H](C)/C=C/C=C/C=C(\\C)[C@@H](OCCC3CCS(=O)(=O)C3)C[C@@H]3CC[C@@H](C)[C@@](O)(O3)C(=O)C(=O)N3CCCC[C@H]3C(=O)O2)CC[C@H]1O (some centres unmarked) [Compound 27]")
"10 to 100 nM"
>>> measured_result("CO[C@@H]1C[C@H](C[C@@H](C)[C@@H]2CC(=O)[C@H](C)/C=C(\\C)[C@@H](O)[C@@H](OC)C(=O)[C@H](C)C[C@H](C)/C=C/C=C/C=C(\\C)[C@@H](OCC3CCOC3)C[C@@H]3CC[C@@H](C)[C@@](O)(O3)C(=O)C(=O)N3CCCC[C@H]3C(=O)O2)CC[C@H]1O (some centres unmarked) [Compound 31]")
"10 to 100 nM"
>>> measured_result("COC1CC(CC(C)C2CC(=O)C(C)C=C(C)C(O)C(OC)C(=O)C(C)CC(C)C=CC=CC=C(C)C(OC3CCOC3)CC3CCC(C)C(O)(O3)C(=O)C(=O)N3CCCCC3C(=O)O2)CCC1O (centres unmarked) [Compound 35]")
"< 10 nM"
>>> measured_result("COCCOCCS(=O)(=O)NC1CC2CCC(C)C(O)(O2)C(=O)C(=O)N2CCCCC2C(=O)OC(C(C)CC2CCC(OCCCO)C(OC)C2)CC(=O)C(C)C=C(C)C(O)C(OC)C(=O)C(C)CC(C)C=CC=CC=C1C (centres unmarked) [Compound 2]")
"10 to 100 nM"
>>> measured_result("CO[C@@H]1C[C@H](C[C@@H](C)[C@@H]2CC(=O)[C@H](C)/C=C(\\C)[C@@H](O)[C@@H](OC)C(=O)[C@H](C)C[C@H](C)/C=C/C=C/C=C(\\C)[C@@H](OC3CC3)C[C@@H]3CC[C@@H](C)[C@@](O)(O3)C(=O)C(=O)N3CCCC[C@H]3C(=O)O2)CC[C@H]1OCCCS(C)(=O)=O [Compound 64]")
"> 100 nM"
>>> measured_result("CCOC(=O)COC1CCC(CC(C)C2CC(=O)C(C)C=C(C)C(O)C(OC)C(=O)C(C)CC(C)C=CC=CC=C(C)C(OCC3CCC3)CC3CCC(C)C(O)(O3)C(=O)C(=O)N3CCCCC3C(=O)O2)CC1OC (centres unmarked) [Compound 49]")
"> 100 nM"
